Data origin: paper PMC3684959

# Tgt: Arp3 (Arp2/3 complex) (Bos taurus, UniProt P61157)
# Assay info: fluorescence titration of BtArp2/[…] complex with ε-ATP
Result type: pKd
Entry type: numeric. Quantity: pKd, the -log10 of concentration in molar units.

Indicate its recorded pKd; the compound in question is "O=P(O)(O)OP(=O)(O)OP(=O)(O)OC[C@H]1O[C@@H](n2cnc3c2ncn2ccnc32)[C@H](O)[C@@H]1O"
5.52
